Each entry below lists one item and its recorded TGI value.
# Test system: RXF 393 renal
# assayMethodText: NCI tumour cell line growth inhibition, 48 h
Number in µM, nothing else.

Below, each entry is followed by its recorded TGI result.
> print(dat)
                                   molecule  numericresult
1  CCOC(=O)CC(NCc1ccc(N=Cc2nc3ccc(C(F)(F)F)cc3nc2-c2ccccc2)cc1)C(=O)OCC (stereo not given)             56
2  Cc1c(O)c(Br)c(C)c(O)c1Br (tested in a mixture with another compound)           3.33
3  Cn1cnc([N+](=O)[O-])c1Sc1nc2ccc([N+](=O)[O-])cc2[nH]1           40.1
4  COc1ccc(-c2nc3sccn3c2-c2ccnc(NCCCNS(=O)(=O)c3ccc(F)cc3)n2)cc1           13.1
5  N[C@@H](CSSC[C@H](N)C(=O)N1CCn2cc(-c3ccccc3)nc2[C@@H]1CC1CCCCC1)C(=O)N1CCn2cc(-c3ccccc3)nc2[C@@H]1CC1CCCCC1            3.1

TGI reported for this molecule COc1ccc(Nc2nc3ccc(C(F)(F)F)cc3nc2C(=O)O)cc1 : 62.6

TGI reported for this molecule COc1c(Br)cc(/C=C(\C#N)c2ccccn2)cc1Br : 75.1

TGI reported for this molecule CNCCNc1nc2ccccc2c2c(=O)c3cccc(C)c3sc12 : 9.72

TGI reported for this molecule C[n+]1c2ccccc2c(CNC(CS)C(=O)O)c2ccccc21 (stereo not given) : 59.8

###

# Tested on: NCI/ADR-RES ovarian
# assayMethodText: NCI tumour cell line growth inhibition, 48 h
assayMetric: TGI

> print(dat)
                                   compound  assaymetric    result
1  Cc1ccc([N+](=O)[O-])cc1S(=O)(=O)Nc1ccc(C2=NOC(c3ccccc3O)C2)cc1 (centres undefined)          TGI   8.53 µM
2  C[C@H](c1ccccc1)N(CCC(=O)O)C(=O)CCN(C(=O)CCN(C(=O)CCN[C@H](C)c1ccccc1)[C@H](C)c1ccccc1)[C@H](C)c1ccccc1          TGI  > 100 µM
3           COc1cc(/C=C/c2ccccn2)cc(OC)c1OC          TGI   > 10 µM
4  CCc1ccc2c(c1)C(=O)c1c-2n(CCCN)c(=O)c2cc([N+](=O)[O-])ccc12          TGI   3.29 µM
5  Cc1ccc(S(=O)(=O)Oc2nc3nc4ccccc4nc3nc2OS(=O)(=O)c2ccc(C)cc2)cc1          TGI  > 100 µM

Below: the item to evaluate.
Record for COC(=O)C1(C)CCCC2(C)c3cc(OC)ccc3C(=O)C(Br)C12 (centres undefined) under target or system NCI/ADR-RES ovarian: TGI reported as > 10 µM

###

Each entry below lists one item and its recorded GI50 value.
# Test system: MDA-MB-231 breast
# assayMethodText: NCI tumour cell line growth inhibition, 48 h

Below, each entry is followed by its recorded GI50 result.
> print(dat)
                                   molecule  assaymetric    result
1  CCCc1n(Cc2ccc3ccccc3n2)cc[n+]1Cc1ccc2ccccc2n1         GI50   2.11 µM
2  COc1ccc2c(c1)N(CCO)C1=C(C(=O)OC1)C2c1ccc(OC)c(OC)c1 (stereo unspecified)         GI50   3.63 µM
3  C[C@H](c1ccccc1)N(CCC(=O)O)C(=O)CCN(C(=O)CCN(C(=O)CCN[C@H](C)c1ccccc1)[C@H](C)c1ccccc1)[C@H](C)c1ccccc1         GI50  > 100 µM

Record for COc1ccc(-c2nc3sccn3c2-c2ccnc(NCCCNS(=O)(=O)c3ccc(F)cc3)n2)cc1 under target or system MDA-MB-231 breast: GI50 reported as 4.18 µM

###

# Test system: UACC-62 melanoma
# assayMethodText: NCI tumour cell line growth inhibition, 48 h; in the data active means GI50 below about 0.43 µM; inactive means the rest
Hello, when you answer, please use one of the following outcomes: 1 for active, 0 for inactive

Some solved cases for reference:
> print(dat)
                                   compound      targetentity  label
1  Cc1[nH]n(-c2cccc(Cl)c2)c(=O)c1/C=C1\C=c2ccccc2=CC1=O  UACC-62 melanoma      0
2  O=C1NC(=N[C@H](CO)c2ccccc2)S/C1=C\c1ccc2ncccc2c1  UACC-62 melanoma      0
3      OCc1ccc(N(Cc2ccc(F)cc2)CC2CCC2)cc1Cl  UACC-62 melanoma      0
4  COc1cc(-c2nn(-c3cccc(NC(=O)CCN4CCN(C)CC4)c3)cc2-c2ccncc2)ccc1Cl  UACC-62 melanoma      0
5  CCN1C(=O)N(CC)C2C1NN=c1s/c(=C\c3ccc(OC)cc3)c(=O)n12 (stereo unspecified)  UACC-62 melanoma      1

// param item: CC[C@@]1(O)C(=O)NCc2c1cc1n(c2=O)Cc2cc3c(NC(C)=O)cccc3nc2-1 ; yields the recorded call
0

// param item: O=C(c1ccco1)c1c(C(F)(F)F)n([O-])c2ccc(F)cc2[n+]1=O ; yields the recorded call
0

// param item: Cc1cc2c(cc1Cl)SC(C(=O)c1ccc(Cl)c(Cl)c1)NS2(=O)=O (stereo unspecified) ; yields the recorded call
0

// param item: COc1ccc2c(c1)C(=O)c1c-2c(N2CCN(C(=O)CCNCCNCCO)CC2)nc2ccccc12 ; yields the recorded call
0

// param item: COc1cc(NC(C)CCCN2C(=O)c3ccccc3C2=O)c2ncccc2c1OC (stereo unspecified) ; yields the recorded call
0

// param item: CCc1ccc2c(c1)C(=O)c1c-2n(CCCN)c(=O)c2cc([N+](=O)[O-])ccc12 ; yields the recorded call
0

// param item: N[C@@H](CSSC[C@H](N)C(=O)N1CCn2cc(-c3ccccc3)nc2[C@@H]1CC1CCCCC1)C(=O)N1CCn2cc(-c3ccccc3)nc2[C@@H]1CC1CCCCC1 ; yields the recorded call
0

// param item: Fc1ccc(-c2nn3c(COc4ccc(Cl)cc4Cl)nnc3s2)cc1Oc1ccccc1 ; yields the recorded call
0

// param item: CCN(CCO)CCCOc1ccc2c(Nc3cc(CC(=O)Nc4cccc(F)c4)[nH]n3)ncnc2c1 ; yields the recorded call
0

// param item: CC(=O)C(C=O)C(C)=O.CC(=O)CC(C)=O.CC(=O)CC(C)=O.[Ru] ; yields the recorded call
0

// param item: Cn1cc(C2=C(c3c(S(C)=O)n(C)c4ccccc34)C(=O)NC2=O)c2ccccc21 (stereo unspecified) ; yields the recorded call
0

###

# System: A549 NSCLC
# assayMethodText: NCI tumour cell line growth inhibition, 48 h
*1 amine or outer side, *2 acyl side, *3 side chain or, on linkers, in order; H or OH if unused. Where a SMILES comes first, the peptide text is derived from it. The star is where a group is joined. γGlu = O=C(O)[CH](CCC(=O)[*:2])N[*:1]; NHOH = ON*
assayMetric: TGI

> print(dat)
                              molecule    result
1  CNN1C(=O)c2c(C)c(C)c(C#N)c(N)c2C1=O  > 100 µM

TGI reported for this molecule FC(F)(F)c1ccc(NCc2nc3ccccc3[nH]2)cc1 : > 100 µM

TGI reported for this molecule CCOC(=O)c1c2ccc(/C=C/c3ccccc3)ccc-2c(C(=O)OCC)c1N : > 100 µM

TGI reported for this molecule CCOC(=O)CNC(=O)C(CCC(=O)NO)NC(=O)CCC(N)C(=O)O (stereo not given) (γGlu-Glu(NHOH)-Gly-OEt; configuration not given here) : > 100 µM

TGI reported for this molecule CC1COCCN1CC#CCOC(=O)c1cc2ccccc2oc1=O (stereo not given) : > 100 µM

TGI reported for this molecule COC(=O)c1ccc(/C=C2\Oc3cc(O)ccc3C2=O)cc1 : > 100 µM

TGI reported for this molecule CC/C(=N/N=C(N)N)c1ccc(NC(=O)Nc2ccc(/C(CC)=N/N=C(N)N)cc2)cc1 : 22.4 µM

TGI reported for this molecule CCN(CCO)CCCOc1ccc2c(Nc3cc(CC(=O)Nc4cccc(F)c4)[nH]n3)ncnc2c1 : > 100 µM

TGI reported for this molecule Cc1ccc([N+](=O)[O-])cc1S(=O)(=O)Nc1ccc(C2=NOC(c3ccccc3O)C2)cc1 (stereo not given) : 71.8 µM

###

Each entry below lists one item and its recorded TGI value.
# Tested on: M19-MEL melanoma
# assayMethodText: NCI tumour cell line growth inhibition, 48 h

Below, each entry is followed by its recorded TGI result.
> print(dat)
                                   compound    result
1  CCCCC(C(=O)CCC(=O)Nc1ccc(Cl)cc1)C(=O)C(C)C (configuration not stated)  > 100 µM
2  CSc1nc2nc(C(O)C(O)C(O)CO)cnc2c(=O)[nH]1 (configuration not stated)  > 100 µM

Record for O=C(/C=C/c1ccc(O)cc1)c1cc(Cl)ccc1O under target or system M19-MEL melanoma: TGI reported as > 100 µM

Record for Nc1ccc(C(=O)Nc2ccccc2N)cc1 under target or system M19-MEL melanoma: TGI reported as > 100 µM

Record for COC(=O)C(Cc1nc2ccccc2[nH]c1=O)C(=O)C(=O)Nc1ccc(F)cc1 (configuration not stated) under target or system M19-MEL melanoma: TGI reported as > 100 µM

Record for O=C1CC[C@@H](NC(=O)Cc2ccccc2)C(=O)N1 under target or system M19-MEL melanoma: TGI reported as > 100 µM
